Would you mind telling me the reported pIC50 of each entry?
Target or system: Protein deacetylase HDAC6 (Homo sapiens, UniProt Q9UBN7)
Sequence (Q9UBN7 whole entry): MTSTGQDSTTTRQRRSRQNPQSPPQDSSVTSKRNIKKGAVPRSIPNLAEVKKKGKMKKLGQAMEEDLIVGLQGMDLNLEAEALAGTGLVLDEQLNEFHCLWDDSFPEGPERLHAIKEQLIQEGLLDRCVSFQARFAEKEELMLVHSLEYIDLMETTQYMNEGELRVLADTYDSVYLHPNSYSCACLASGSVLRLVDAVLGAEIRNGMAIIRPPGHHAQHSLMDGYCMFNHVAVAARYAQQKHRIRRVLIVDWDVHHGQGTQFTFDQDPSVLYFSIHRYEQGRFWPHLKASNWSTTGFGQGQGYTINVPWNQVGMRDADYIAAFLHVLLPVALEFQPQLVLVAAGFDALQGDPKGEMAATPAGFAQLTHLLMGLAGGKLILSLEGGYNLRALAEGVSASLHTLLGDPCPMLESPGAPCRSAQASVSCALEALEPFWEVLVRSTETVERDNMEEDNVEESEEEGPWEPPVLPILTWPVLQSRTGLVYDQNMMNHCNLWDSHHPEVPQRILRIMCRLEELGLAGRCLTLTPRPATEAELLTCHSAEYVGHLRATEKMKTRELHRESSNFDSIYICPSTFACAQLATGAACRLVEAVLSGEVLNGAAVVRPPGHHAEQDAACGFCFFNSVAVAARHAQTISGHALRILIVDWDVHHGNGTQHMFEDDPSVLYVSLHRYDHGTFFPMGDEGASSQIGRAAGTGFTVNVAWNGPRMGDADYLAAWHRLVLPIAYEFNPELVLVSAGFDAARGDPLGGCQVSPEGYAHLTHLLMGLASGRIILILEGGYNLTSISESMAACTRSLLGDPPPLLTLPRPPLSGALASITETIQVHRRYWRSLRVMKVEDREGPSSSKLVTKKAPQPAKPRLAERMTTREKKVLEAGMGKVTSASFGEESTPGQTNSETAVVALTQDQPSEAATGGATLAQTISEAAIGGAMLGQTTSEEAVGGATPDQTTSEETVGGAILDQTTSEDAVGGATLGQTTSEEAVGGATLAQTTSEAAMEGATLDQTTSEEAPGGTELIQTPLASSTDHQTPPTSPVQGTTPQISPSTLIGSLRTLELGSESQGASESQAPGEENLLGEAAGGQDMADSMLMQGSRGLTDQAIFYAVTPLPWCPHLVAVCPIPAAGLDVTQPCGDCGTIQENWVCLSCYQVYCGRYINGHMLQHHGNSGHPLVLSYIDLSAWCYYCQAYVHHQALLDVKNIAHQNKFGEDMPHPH
Square brackets hold non-standard residues; d marks the D form. Peptide text beside a SMILES is read from it. * marks the point of attachment. Asu = N[C@@H](CCCCCC(=O)O)C(=O)O; pGlu = O=C1CC[C@@H](C(=O)O)N1; NHPh = c1ccc(N*)cc1; NHOH = ON*
One number for each entry, as −log10 of the molar value.

                                   compound  experimental_endpoint  result_value
0  O=C(CCCCC[C@H](NC(=O)[C@@H]1CCC(=O)N1)C(=O)Nc1ccccc1)NO ([pGlu]-[Asu](NHOH)-NHPh)                  pIC50          8.52
1  O=C1CC[C@H](C(=O)N[C@@H](CCCCCS)C(=O)Nc2ccccc2)N1                  pIC50          8.52

Now consider a different compound.
Tell me pIC50 reported for "O=C(CCCCC[C@H](NC(=O)[C@@H]1CC(=O)N1)C(=O)Nc1ccccc1)NO" 8.22

====

Target chain: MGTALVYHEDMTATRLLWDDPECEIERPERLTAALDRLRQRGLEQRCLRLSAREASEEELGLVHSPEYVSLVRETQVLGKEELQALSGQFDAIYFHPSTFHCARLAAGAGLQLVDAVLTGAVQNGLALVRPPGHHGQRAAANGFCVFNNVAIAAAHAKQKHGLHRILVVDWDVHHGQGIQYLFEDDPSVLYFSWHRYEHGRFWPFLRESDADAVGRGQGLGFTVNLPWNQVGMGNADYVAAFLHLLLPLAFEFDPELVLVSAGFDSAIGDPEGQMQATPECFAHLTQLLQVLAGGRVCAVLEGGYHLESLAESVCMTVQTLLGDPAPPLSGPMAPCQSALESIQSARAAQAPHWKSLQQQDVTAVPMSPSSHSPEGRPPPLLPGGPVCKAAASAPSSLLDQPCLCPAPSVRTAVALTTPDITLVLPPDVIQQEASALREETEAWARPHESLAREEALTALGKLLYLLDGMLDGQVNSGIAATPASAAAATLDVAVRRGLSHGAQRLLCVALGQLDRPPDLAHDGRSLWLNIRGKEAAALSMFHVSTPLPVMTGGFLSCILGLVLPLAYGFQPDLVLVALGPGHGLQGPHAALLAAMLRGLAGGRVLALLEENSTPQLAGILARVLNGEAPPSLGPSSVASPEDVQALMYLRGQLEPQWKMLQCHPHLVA
Square brackets hold non-standard residues; d marks the D form. Peptide text beside a SMILES is read from it. * marks the point of attachment. Asu = N[C@@H](CCCCCC(=O)O)C(=O)O; pGlu = O=C1CC[C@@H](C(=O)O)N1; NHPh = c1ccc(N*)cc1; NHOH = ON*
Experimental endpoint: pIC50
Numbers only, as −log10 of the molar value.

>>> df
                                   molecule  result_value
0  O=C(CCCCC[C@H](NC(=O)[C@@H]1CC(=O)N1)C(=O)Nc1ccccc1)NO          6.90

The record that follows has no pIC50 shown yet.
Tell me measured pIC50 for O=C(CCCCC[C@H](NC(=O)[C@@H]1CCC(=O)N1)C(=O)Nc1ccccc1)NO ([pGlu]-[Asu](NHOH)-NHPh) please. 6.95
